target: T1, human α4β7 integrin on cells (human, UniProt P13612 34-1032; P26010 20-798); assay: PBMC memory T cell adhesion
T1 construct: whole, on cells; also called α4β7 cell (Hu); RPMI8866 cells
pIC50: −log10 of the molar value. Bridge positions count the residues as written; N and C are the ends. Square brackets hold non-standard residues; d marks the D form. NMeR = CN[C@@H](CCCNC(=N)N)C(=O)O; Pen = CC(C)(S)[C@H](N)C(=O)O; dNMeK = CN[C@H](CCCCN)C(=O)O
READOUT NAME: pIC50

Observe how each entry below is paired with its result.
| BINDER | pIC50 |
| --- | --- |
| Ac-[Pen][NMeR]SDTL[Pen]W[dE][dK]-OH (disulfide 1-7; not fully specified (residue 10); printed as (Ac Pen N-Me-R S D T L Pen W e k OH)2 DIG, disulfide Pen-Pen; also: dimer, two subunits joined by DIG linker, also called peptide 216) [SEQ ID NO: 216] | 7.84 |
| Ac-[Pen][NMeR]SDTL[Pen]WE[dNMeK]-NH2 (disulfide 1-7; not fully specified (residue 10); printed as (Ac Pen N-Me-R S D T L Pen W E N-Me-k NH2)2 DIG, disulfide Pen-Pen; also: dimer, two subunits joined by DIG linker, also called peptide 214) [SEQ ID NO: 214] | 7.61 |

I = XRSDTLXWK ((Ac Pen N-Me-R S D T L Pen W k NH2)2 DIG; disulfide Pen-Pen, also called peptide 209) [SEQ ID NO: 209]
II = Ac-C[NMeR]SDTL[Pen]W[dK]-NH2 (disulfide 1-7; also: homodimer via DIG linker on D-Lys9 side chains, also called peptide 204) [SEQ ID NO: 204]
Parameter metric = pIC50. Return the lower-valued option from I and II . // output: label of the selected item
II
(II: 5.89, I: 6.59)
